molecular target: Sodium-dependent serotonin transporter (Rattus norvegicus)
Sequence (P31652 whole entry): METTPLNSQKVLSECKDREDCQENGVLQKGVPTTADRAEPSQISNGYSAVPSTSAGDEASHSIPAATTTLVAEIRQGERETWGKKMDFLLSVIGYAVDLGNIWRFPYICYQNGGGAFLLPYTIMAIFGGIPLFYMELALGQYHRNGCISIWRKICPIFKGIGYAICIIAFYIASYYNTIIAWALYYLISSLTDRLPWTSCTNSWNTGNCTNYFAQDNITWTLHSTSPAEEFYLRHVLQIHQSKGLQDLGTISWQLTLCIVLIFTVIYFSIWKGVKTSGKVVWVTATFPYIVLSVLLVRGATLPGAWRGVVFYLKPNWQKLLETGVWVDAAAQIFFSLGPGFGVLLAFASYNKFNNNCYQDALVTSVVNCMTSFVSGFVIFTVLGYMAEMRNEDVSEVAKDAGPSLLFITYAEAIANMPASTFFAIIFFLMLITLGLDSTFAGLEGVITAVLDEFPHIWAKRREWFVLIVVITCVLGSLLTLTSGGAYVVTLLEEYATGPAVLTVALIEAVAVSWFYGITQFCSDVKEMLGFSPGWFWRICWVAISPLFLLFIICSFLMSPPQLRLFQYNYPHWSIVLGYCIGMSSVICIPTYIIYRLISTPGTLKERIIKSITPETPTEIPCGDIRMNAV
Output 1 for records whose Ki is lower than 4 µM, 0 for records at or above 4 µM.

Input line: Problem: For the compound Fc1ccc(C(OC2CC3CCC(C2)N3CC2CC2)c2ccc(F)cc2)cc1 (stereo not given) , is Ki under 4 µM?
Output line: 1

Input line: Dear reviewer, please state whether Fc1ccc(C(OC2CC3CCC(C2)N3CCc2c[nH]c3ccccc23)c2ccc(F)cc2)cc1 (stereo not given) has Ki strictly beneath 4 µM.
Output line: 1

Input line: Consider CC(C)[C@@H](N)CN1C2CCC1CC(OC(c1ccc(F)cc1)c1ccc(F)cc1)C2 (stereo not given in full) . Does its Ki lie strictly below 4 µM?
Output line: 1

Input line: Quick check: Ki of CN1C2CCC1[C@@H](c1cc(-c3ccc(F)cc3)no1)[C@@H](OC(c1ccc(F)cc1)c1ccc(F)cc1)C2 (mixture of isomers) under 4 µM?
Output line: 1

Input line: I wonder whether Cc1ccc(-c2cc(C3C(c4ccc(Cl)cc4)CC4CCC3N4C)on2)cc1 (stereo not given) has Ki below 4 µM. Can you tell?
Output line: 0

Input line: Would you kindly verify if Ki of CN1C2CCC1[C@@H](c1cc(-c3ccccc3)no1)C(OC(c1ccc(F)cc1)c1ccc(F)cc1)C2 (single isomer, unassigned) is strictly less than 4 µM?
Output line: 1

Input line: Answer whether the compound CN1C2CCC1[C@@H](c1cc(-c3ccc(Cl)cc3)no1)[C@@H](OC(c1ccc(F)cc1)c1ccc(F)cc1)C2 (mixture of isomers) has Ki strictly less than 4 µM
Output line: 1

Input line: Regarding CCOC(=O)[C@@H]1C2CCC(C[C@@H]1OC(c1ccc(F)cc1)c1ccc(F)cc1)N2C[C@H](N)C(C)C (mixture of isomers) , kindly confirm whether its Ki is beneath 4 µM.
Output line: 1

Input line: Given Cc1ccc(-c2cc([C@@H]3C4CCC(C[C@@H]3OC(c3ccc(F)cc3)c3ccc(F)cc3)N4C)on2)cc1 (mixture of isomers) , is recorded Ki strictly lower than 4 µM?
Output line: 0

Input line: Could you please tell me whether Ki recorded for CN(C)CCN1C2CCC1CC(OC(c1ccc(F)cc1)c1ccc(F)cc1)C2 (stereo not given) is less than 4 µM?
Output line: 1

Input line: Please determine if CCOC(=O)[C@@H]1C2CCC(C[C@@H]1OC(c1ccc(F)cc1)c1ccc(F)cc1)N2CC1CC1 (mixture of isomers) is below 4 µM in terms of Ki.
Output line: 1

Input line: Bench note: check whether C=C[C@@H]1C2CCC(C[C@@H]1OC(c1ccc(F)cc1)c1ccc(F)cc1)N2CCN(C)C (mixture of isomers) shows Ki below 4 µM
Output line: 0

Input line: Consider the compound Fc1ccc(C(NC2CC3CCC(C2)N3CCN2CCCCC2)c2ccc(F)cc2)cc1 (stereo not given) . Is its Ki strictly less than 4 µM?
Output line: 1

Input line: Is it true that Ki reported for CC(C)[C@@H](N)CN1C2CCC1CC(NC(c1ccc(F)cc1)c1ccc(F)cc1)C2 (stereo not given in full) is less than 4 µM?
Output line: 0

Input line: Consider CN(C)CCN1C2CCC1CC(NC(c1ccc(F)cc1)c1ccc(F)cc1)C2 (stereo not given) . Does its Ki lie strictly below 4 µM?
Output line: 0

Input line: Regarding Fc1ccc(C(OC2CC3CCC(C2)N3CCN2CCCCC2)c2ccc(F)cc2)cc1 (stereo not given) , kindly confirm whether its Ki is beneath 4 µM.
Output line: 1

Input line: Please determine if CN1C2CCC1[C@@H](c1cc(-c3ccccc3)no1)[C@@H](OC(c1ccc(F)cc1)c1ccc(F)cc1)C2 (mixture of isomers) is below 4 µM in terms of Ki.
Output line: 1

Input line: Decide: Ki of NCCN1C2CCC1CC(OC(c1ccc(F)cc1)c1ccc(F)cc1)C2 (stereo not given) strictly below 4 µM?
Output line: 0

Input line: Would you kindly verify if Ki of Cc1ccc(C2CC3CCC(C2c2cc(-c4ccc(Cl)cc4)no2)N3C)cc1 (stereo not given) is strictly less than 4 µM?
Output line: 0

Input line: Answer whether the compound CCOC(=O)[C@@H]1C2CCC(C[C@@H]1OC(c1ccc(F)cc1)c1ccc(F)cc1)N2CCc1c[nH]c2ccccc12 (mixture of isomers) has Ki strictly less than 4 µM
Output line: 1

---

assay: Displacement of [3H]nisoxetine from Sprague-Dawley rat brain NET after 180 mins by liquid scintillation counting method
metric: log10(Ki) (log10 of the value in nM)
Please be aware that the numbers have been log10-transformed from Ki in nM.

Input line: Consider the molecule CN1C2CCC1[C@@H](c1cc(-c3ccc(Cl)cc3)no1)[C@@H](OC(c1ccc(F)cc1)c1ccc(F)cc1)C2 (mixture of isomers) and give its measured log10(Ki).
Output line: 3.20

Input line: Quick one: log10(Ki) of CN1C2CCC1[C@@H](c1cc(-c3ccc(F)cc3)no1)[C@@H](OC(c1ccc(F)cc1)c1ccc(F)cc1)C2 (mixture of isomers) ?
Output line: 3.21

Input line: Please look up its log10(Ki): Fc1ccc(C(OC2CC3CCC(C2)N3CCN2CCCCC2)c2ccc(F)cc2)cc1 (stereo unspecified)
Output line: 2.57

Input line: For the molecule Cc1ccc(-c2cc([C@@H]3C4CCC(C[C@@H]3OC(c3ccc(F)cc3)c3ccc(F)cc3)N4C)on2)cc1 (mixture of isomers) , what log10(Ki) is on record?
Output line: 3.43

Input line: Field request: log10(Ki) | item: CN(C)CCN1C2CCC1CC(NC(c1ccc(F)cc1)c1ccc(F)cc1)C2 (stereo unspecified)
Output line: 3.60

Input line: Item under review: Cc1ccc(C2CC3CCC(C2c2cc(-c4ccc(Cl)cc4)no2)N3C)cc1 (stereo unspecified) . Reported log10(Ki)?
Output line: 2.95

Input line: State the recorded log10(Ki) for this entry: CN1C2CCC1[C@@H](c1cc(-c3ccccc3)no1)[C@@H](OC(c1ccc(F)cc1)c1ccc(F)cc1)C2 (mixture of isomers)
Output line: 3.04

Input line: Return reported log10(Ki); argument: CN(C)CCN1C2CCC1CC(OC(c1ccc(F)cc1)c1ccc(F)cc1)C2 (stereo unspecified)
Output line: 2.97

Input line: Query (molecule): Fc1ccc(C(OC2CC3CCC(C2)N3CCc2c[nH]c3ccccc23)c2ccc(F)cc2)cc1 (stereo unspecified) ; field requested: log10(Ki)
Output line: 3.87

Input line: Look at this molecule and give its reported log10(Ki). CCOC(=O)[C@@H]1C2CCC(C[C@@H]1OC(c1ccc(F)cc1)c1ccc(F)cc1)N2C[C@H](N)C(C)C (mixture of isomers)
Output line: 3.65

Input line: Need log10(Ki), item CC(C)[C@@H](N)CN1C2CCC1CC(NC(c1ccc(F)cc1)c1ccc(F)cc1)C2 (stereo partly specified)
Output line: 3.37

---

biological target: Sodium-dependent dopamine transporter (Rattus norvegicus, UniProt P23977)
Sequence (P23977 whole entry): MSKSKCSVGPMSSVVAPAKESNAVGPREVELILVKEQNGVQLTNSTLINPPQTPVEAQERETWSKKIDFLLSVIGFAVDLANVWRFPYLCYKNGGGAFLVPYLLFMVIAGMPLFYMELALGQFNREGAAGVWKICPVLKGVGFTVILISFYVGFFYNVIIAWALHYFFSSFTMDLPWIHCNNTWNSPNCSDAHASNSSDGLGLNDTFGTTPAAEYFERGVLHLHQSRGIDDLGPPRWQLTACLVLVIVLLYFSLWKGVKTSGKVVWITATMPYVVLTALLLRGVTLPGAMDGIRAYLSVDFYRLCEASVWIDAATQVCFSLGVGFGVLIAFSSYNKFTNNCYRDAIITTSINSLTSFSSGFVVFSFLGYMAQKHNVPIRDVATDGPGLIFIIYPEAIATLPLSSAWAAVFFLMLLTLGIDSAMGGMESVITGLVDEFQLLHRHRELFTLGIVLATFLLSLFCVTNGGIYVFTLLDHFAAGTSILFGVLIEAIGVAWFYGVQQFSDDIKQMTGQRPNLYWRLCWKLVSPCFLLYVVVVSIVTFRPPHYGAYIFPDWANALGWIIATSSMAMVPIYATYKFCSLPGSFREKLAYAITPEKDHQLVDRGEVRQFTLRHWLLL
metric: Ki
Answer format reminder: number followed by unit.

Input line: I am curious: what Ki value has been reported for CN1C2CCC1[C@@H](c1cc(-c3ccccc3)no1)C(OC(c1ccc(F)cc1)c1ccc(F)cc1)C2 (single isomer, unassigned) ?
Output line: 14.4 nM

Input line: What measured Ki goes with Cc1ccc(-c2cc(C3C(c4ccc(Cl)cc4)CC4CCC3N4C)on2)cc1 (stereo not given) ?
Output line: 10.7 nM

Input line: Param item = CN(C)CCN1C2CCC1CC(OC(c1ccc(F)cc1)c1ccc(F)cc1)C2 (stereo not given) ; retrieve measured Ki.
Output line: 12 nM

Input line: Please report the recorded Ki for CC(C)[C@@H](N)CN1C2CCC1CC(NC(c1ccc(F)cc1)c1ccc(F)cc1)C2 (stereo not given in full) .
Output line: 21 nM

Input line: Form field: reported Ki of CC(C)[C@@H](N)CN1C2CCC1CC(OC(c1ccc(F)cc1)c1ccc(F)cc1)C2 (stereo not given in full)
Output line: 13.2 nM

---

Entries with reported pKi on Sodium-dependent dopamine transporter (Rattus norvegicus)
Please note pKi is a logarithmic value: minus log10 of concentration in mol/L. Answer with that number alone.

Input line: I am curious: what pKi value has been reported for Fc1ccc(C(OC2CC3CCC(C2)N3CCc2c[nH]c3ccccc23)c2ccc(F)cc2)cc1 (configuration not stated) ?
Output line: 7.53

Input line: What value of pKi has been recorded for this entry: C=C[C@@H]1C2CCC(C[C@@H]1OC(c1ccc(F)cc1)c1ccc(F)cc1)N2CCN(C)C (mixture of isomers)
Output line: 7.87

Input line: Returns the measured pKi for the input compound. Input: Cc1ccc(C2CC3CCC(C2c2cc(-c4ccc(Cl)cc4)no2)N3C)cc1 (configuration not stated)
Output line: 8.07

Input line: // lookup pKi for CCOC(=O)[C@@H]1C2CCC(C[C@@H]1OC(c1ccc(F)cc1)c1ccc(F)cc1)N2CC1CC1 (mixture of isomers)
Output line: 7.92

Input line: Field request: pKi | item: NCCN1C2CCC1CC(OC(c1ccc(F)cc1)c1ccc(F)cc1)C2 (configuration not stated)
Output line: 8.25

Input line: Entry under review: CN1C2CCC1[C@@H](c1cc(-c3ccccc3)no1)[C@@H](OC(c1ccc(F)cc1)c1ccc(F)cc1)C2 (mixture of isomers) . Reported pKi?
Output line: 7.22

Input line: Which pKi is reported for this compound? CCOC(=O)[C@@H]1C2CCC(C[C@@H]1OC(c1ccc(F)cc1)c1ccc(F)cc1)N2CCc1c[nH]c2ccccc12 (mixture of isomers)
Output line: 7.58
